Origin of values: ChEMBL document CHEMBL3988442

As shown below, each of these compounds has a reported Percent Effect value.
# tested.target: Sialic acid-binding Ig-like lectin 9 (Homo sapiens) (UniProt Q9Y336)
# Sequence (Q9Y336 whole entry): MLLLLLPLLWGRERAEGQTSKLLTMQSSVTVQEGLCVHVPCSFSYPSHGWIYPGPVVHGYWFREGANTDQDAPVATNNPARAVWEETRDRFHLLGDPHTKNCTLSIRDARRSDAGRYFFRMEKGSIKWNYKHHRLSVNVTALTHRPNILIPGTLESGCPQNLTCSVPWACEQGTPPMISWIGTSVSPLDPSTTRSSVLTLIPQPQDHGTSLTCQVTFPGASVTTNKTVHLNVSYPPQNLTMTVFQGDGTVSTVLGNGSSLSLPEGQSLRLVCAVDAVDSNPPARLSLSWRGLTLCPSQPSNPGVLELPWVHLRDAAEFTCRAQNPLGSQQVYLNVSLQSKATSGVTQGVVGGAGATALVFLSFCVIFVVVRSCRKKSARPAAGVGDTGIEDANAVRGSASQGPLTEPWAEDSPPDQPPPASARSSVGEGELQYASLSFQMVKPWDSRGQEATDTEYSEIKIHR
# test.name: Hs-Siglec9 ALPHAscreen SOP 20170721
# Set-up: scale not given: direction of the effect not stated beside the values
# test.conditions: 10 µM
readout.label: Percent Effect (%)

- compound: "Cc1nc(C2CCCN2CC(=O)NCCc2ccsc2)no1 (stereo not given)"
  readout.label: "Percent Effect"
  recorded.number: 13.2
- compound: "NCC(=O)N1CCCC(c2cncc(Nc3ncccn3)n2)C1 (stereo not given)"
  readout.label: "Percent Effect"
  recorded.number: 18
- compound: "CC(=O)Nc1c(C)cnn1Cc1cc(F)ccc1F"
  readout.label: "Percent Effect"
  recorded.number: 2.06
- compound: "Cc1nn(-c2ccccc2)cc1C(=O)N1CCCN2CCCC2C1 (stereo not given)"
  readout.label: "Percent Effect"
  recorded.number: 5.72
- compound: "O=C(COCc1ccccc1)N1CCC(OCc2cccnc2)CC1"
  readout.label: "Percent Effect"
  recorded.number: 2.89
- compound: "COc1cccc(OCC2CCCN(C3CCN(C(C)=O)CC3)C2)c1 (stereo not given)"
  readout.label: "Percent Effect"
  recorded.number: -4.78
- compound: "CN(Cc1cncnc1)Cc1cn2c(n1)CN(C1CCOC1)CC2 (stereo not given)"
  readout.label: "Percent Effect"
  recorded.number: 5.52
- compound: "Cc1ccc(C(=O)N2CCC3(CC2)CCN(CCN(C)C)C3=O)cn1"
  readout.label: "Percent Effect"
  recorded.number: -4.15
- compound: "Cc1cc(CN2CCCC2c2c(C)nn(C)c2Cl)no1 (stereo not given)"
  readout.label: "Percent Effect"
  recorded.number: -2.11
- compound: "CC(Cn1cccn1)NC(=O)NCc1cccs1 (stereo not given)"
  readout.label: "Percent Effect"
  recorded.number: 2.38
- compound: "O=C(Nc1nncs1)NC1CCOc2ccccc21 (stereo not given)"
  readout.label: "Percent Effect"
  recorded.number: -2.09
- compound: "CCN(CC1CCOC1)C(=O)Nc1ccc(OC)nc1 (stereo not given)"
  readout.label: "Percent Effect"
  recorded.number: -22.4
- compound: "N#Cc1c(C2CC2)cc(-c2ccc(O)cc2)nc1N"
  readout.label: "Percent Effect"
  recorded.number: 3.32
- compound: "CSCC(=O)N1C[C@H]2CC[C@@H]1CN(Cc1ccccc1)C2"
  readout.label: "Percent Effect"
  recorded.number: -0.0854
- compound: "COc1ccc(F)cc1C(C)NC(=O)c1nnc(C)s1 (stereo not given)"
  readout.label: "Percent Effect"
  recorded.number: -9.5
- compound: "CN1CC(c2ccccc2)CC12CCN(C(=O)c1c(Cl)cnn1C)CC2 (stereo not given)"
  readout.label: "Percent Effect"
  recorded.number: 9.49
- compound: "Cc1cnn(C2CCCN(C(=O)c3cnc4ccccc4n3)C2)c1 (stereo not given)"
  readout.label: "Percent Effect"
  recorded.number: 2.3
- compound: "CN1CCN(CC2CC2)C(=O)c2cnc(N3CCCCC3)nc21"
  readout.label: "Percent Effect"
  recorded.number: 3.74
- compound: "Cc1nnc(CCNC2CCN(c3ncnc4c(C)csc34)CC2)s1"
  readout.label: "Percent Effect"
  recorded.number: 11
- compound: "CC(C)Oc1ncccc1CNC(=O)C1CCCN(C(=O)C2CC2)C1 (stereo not given)"
  readout.label: "Percent Effect"
  recorded.number: -1.61
- compound: "CCNC(=O)N1CCCC(c2noc(CC)n2)C1 (stereo not given)"
  readout.label: "Percent Effect"
  recorded.number: 9.2
- compound: "COC(=O)CCN1CCCC1c1cccc2c1OCCO2 (stereo not given)"
  readout.label: "Percent Effect"
  recorded.number: 36
- compound: "Cn1cc(CC(=O)N2CCC(Nc3cccnn3)CC2)c2ccccc21"
  readout.label: "Percent Effect"
  recorded.number: 3.22
- compound: "Cn1cc(C(=O)NC2CCN(C(=O)NCC3CCSCC3)CC2)cn1"
  readout.label: "Percent Effect"
  recorded.number: 2.29
- compound: "Cn1cc(C(=O)N2CCCC(n3cccn3)C2)c2ccccc21 (stereo not given)"
  readout.label: "Percent Effect"
  recorded.number: -2.42

* * *

# tested.target: Ubiquitin-activating enzyme e1, putative (Leishmania donovani (strain BPK282A1)) (UniProt E9BSI1)
# Sequence (E9BSI1 as listed by the source): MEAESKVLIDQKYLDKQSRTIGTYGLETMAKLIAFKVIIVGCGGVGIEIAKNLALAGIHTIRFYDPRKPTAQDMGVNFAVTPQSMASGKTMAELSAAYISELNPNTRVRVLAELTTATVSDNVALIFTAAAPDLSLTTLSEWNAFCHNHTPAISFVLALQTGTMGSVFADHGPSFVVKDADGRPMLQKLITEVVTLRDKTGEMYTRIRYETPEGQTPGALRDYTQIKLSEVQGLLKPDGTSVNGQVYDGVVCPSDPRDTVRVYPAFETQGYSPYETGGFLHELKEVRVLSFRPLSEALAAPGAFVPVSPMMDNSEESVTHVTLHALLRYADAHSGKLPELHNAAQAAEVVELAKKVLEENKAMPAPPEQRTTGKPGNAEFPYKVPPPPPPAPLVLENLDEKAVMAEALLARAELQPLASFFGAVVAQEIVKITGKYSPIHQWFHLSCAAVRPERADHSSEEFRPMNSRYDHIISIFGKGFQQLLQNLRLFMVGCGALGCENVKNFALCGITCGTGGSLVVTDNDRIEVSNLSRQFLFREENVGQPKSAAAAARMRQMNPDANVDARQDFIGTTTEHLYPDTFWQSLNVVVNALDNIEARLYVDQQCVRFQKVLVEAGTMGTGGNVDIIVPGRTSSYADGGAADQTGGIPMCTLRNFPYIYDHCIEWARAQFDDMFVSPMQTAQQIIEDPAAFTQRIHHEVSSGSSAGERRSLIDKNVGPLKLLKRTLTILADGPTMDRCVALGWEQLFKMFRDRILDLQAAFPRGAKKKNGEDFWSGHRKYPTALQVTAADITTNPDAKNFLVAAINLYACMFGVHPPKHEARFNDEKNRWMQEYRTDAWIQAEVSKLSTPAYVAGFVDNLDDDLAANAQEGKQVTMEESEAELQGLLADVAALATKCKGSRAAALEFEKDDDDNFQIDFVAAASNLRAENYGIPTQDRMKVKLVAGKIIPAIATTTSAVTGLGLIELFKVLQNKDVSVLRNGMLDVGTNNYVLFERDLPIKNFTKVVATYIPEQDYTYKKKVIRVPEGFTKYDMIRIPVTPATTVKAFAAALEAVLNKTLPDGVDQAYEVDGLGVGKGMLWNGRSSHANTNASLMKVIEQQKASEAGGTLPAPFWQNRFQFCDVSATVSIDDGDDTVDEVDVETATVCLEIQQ
# test.name: Leishmania donovani Ubiquitin Activating Enzyme (LdE1)
# Format: functional
# Design: scale not given: direction of the effect not stated beside the values
# test.conditions: 30 µM
Potency and affinity values are given separately.
readout.label: Percent Effect

- compound: "CC(C)C(=O)N1CCN(Cc2csc(-c3ncccn3)n2)CC1"
  readout.label: "Percent Effect"
  result: "0%"
- compound: "Cn1cnnc1CNC(=O)Nc1cc(C(F)(F)F)c[nH]c1=O"
  readout.label: "Percent Effect"
  result: "7.89%"
- compound: "COc1ccc(OC)c(C(C)Nc2nc3c(C)nn(C)c3c(=O)n2C)c1 (configuration not stated)"
  readout.label: "Percent Effect"
  result: "-5.2%"
- compound: "CC(C)c1cc(C(=O)NCCN2CCCS2(=O)=O)n[nH]1"
  readout.label: "Percent Effect"
  result: "15.4%"
- compound: "Fc1cccc(-c2nc(CN3CCOC(Cn4cncn4)C3)co2)c1 (configuration not stated)"
  readout.label: "Percent Effect"
  result: "0%"
- compound: "COc1ncccc1NC(=O)NCC1CCS(=O)(=O)C1 (configuration not stated)"
  readout.label: "Percent Effect"
  result: "20.8%"
- compound: "CSCC(=O)N1CCCC(n2ccnc2C(C)C)C1 (configuration not stated)"
  readout.label: "Percent Effect"
  result: "15.8%"
- compound: "Cc1cc(CNc2ccc(C(=O)N3CCCC(C)C3)cc2C)no1 (configuration not stated)"
  readout.label: "Percent Effect"
  result: "10.4%"
- compound: "OC(COCc1ccc(Cl)cc1)CN1CCC(c2ccn[nH]2)CC1 (configuration not stated)"
  readout.label: "Percent Effect"
  result: "20.2%"
- compound: "CC(C)c1ncc(S(C)(=O)=O)c(C2CCCNC2)n1 (configuration not stated)"
  readout.label: "Percent Effect"
  result: "10.8%"
- compound: "COCCC(=O)N1CC2(CCN(Cc3cccc(Cl)c3)CC2)C1"
  readout.label: "Percent Effect"
  result: "5.33%"
- compound: "CNC(=O)C1(CCCc2ccncc2)CCCN1 (configuration not stated)"
  readout.label: "Percent Effect"
  result: "12.2%"

* * *

# tested.target: Chromo domain-containing protein 1 (Saccharomyces cerevisiae (strain ATCC 204508 / S288c) (Baker's yeast)) (UniProt P32657)
# Sequence (P32657 whole entry, the tested form may be a part): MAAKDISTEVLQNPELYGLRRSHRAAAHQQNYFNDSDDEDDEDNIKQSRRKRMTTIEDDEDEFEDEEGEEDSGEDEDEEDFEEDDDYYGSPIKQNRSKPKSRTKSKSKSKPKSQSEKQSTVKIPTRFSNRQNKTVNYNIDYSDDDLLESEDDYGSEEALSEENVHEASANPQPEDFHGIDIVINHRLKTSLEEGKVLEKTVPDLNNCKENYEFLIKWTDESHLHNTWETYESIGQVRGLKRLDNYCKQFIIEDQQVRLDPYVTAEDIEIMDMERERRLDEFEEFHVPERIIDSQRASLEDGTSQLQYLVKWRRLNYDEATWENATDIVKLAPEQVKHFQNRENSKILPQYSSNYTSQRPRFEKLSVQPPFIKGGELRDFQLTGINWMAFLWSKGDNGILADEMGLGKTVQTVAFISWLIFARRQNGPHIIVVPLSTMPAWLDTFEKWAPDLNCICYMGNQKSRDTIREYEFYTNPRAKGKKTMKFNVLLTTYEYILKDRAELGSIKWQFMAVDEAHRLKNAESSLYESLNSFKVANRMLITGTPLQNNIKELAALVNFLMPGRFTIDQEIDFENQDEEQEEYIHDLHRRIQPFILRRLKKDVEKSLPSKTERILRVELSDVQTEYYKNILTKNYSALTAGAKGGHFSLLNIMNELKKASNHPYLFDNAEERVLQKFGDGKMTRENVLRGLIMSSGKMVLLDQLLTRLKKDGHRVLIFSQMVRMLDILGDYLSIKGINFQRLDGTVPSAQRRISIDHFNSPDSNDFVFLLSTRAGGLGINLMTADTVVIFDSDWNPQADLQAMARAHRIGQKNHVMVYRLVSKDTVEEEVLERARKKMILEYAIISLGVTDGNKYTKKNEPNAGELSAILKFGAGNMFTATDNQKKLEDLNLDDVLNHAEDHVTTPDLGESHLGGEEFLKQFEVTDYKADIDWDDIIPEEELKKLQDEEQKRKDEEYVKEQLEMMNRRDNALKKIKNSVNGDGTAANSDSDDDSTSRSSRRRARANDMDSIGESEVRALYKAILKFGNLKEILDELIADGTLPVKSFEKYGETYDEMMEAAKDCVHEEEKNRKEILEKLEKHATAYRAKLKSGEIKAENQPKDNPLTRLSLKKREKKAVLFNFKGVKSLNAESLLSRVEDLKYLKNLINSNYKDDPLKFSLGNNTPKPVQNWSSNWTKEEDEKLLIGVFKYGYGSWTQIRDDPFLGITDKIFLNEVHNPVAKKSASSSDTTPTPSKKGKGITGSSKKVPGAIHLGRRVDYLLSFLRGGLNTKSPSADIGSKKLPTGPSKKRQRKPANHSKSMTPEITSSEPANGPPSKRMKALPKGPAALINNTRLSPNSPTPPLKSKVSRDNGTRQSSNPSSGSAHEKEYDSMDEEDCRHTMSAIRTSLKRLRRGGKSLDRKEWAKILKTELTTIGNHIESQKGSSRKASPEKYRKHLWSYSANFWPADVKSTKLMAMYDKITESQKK
# test.name: ScCHD-1 Enzyme Inhibition Assay; also: in the data most compounds retested in dose-response had high values
# Format: functional
# Parameters: scale not given: direction of the effect not stated beside the values
# test.conditions: 30 µM

- compound: "CC(=O)N1C[C@@H](c2ccsc2)[C@@H]2CN(Cc3cccc(Cl)c3)CC[C@@H]21"
  unit.spec: "%"
  Percent Effect: -24.3
- compound: "Cc1cc(C)n(CC2CCCCN2CCCS(N)(=O)=O)n1 (centres undefined)"
  unit.spec: "%"
  Percent Effect: -8.39
- compound: "Cc1n[nH]c(C)c1C1CCCN1C(=O)NCCSC(C)(C)C (centres undefined)"
  unit.spec: "%"
  Percent Effect: -1.95
- compound: "Cn1cccc1C(=O)NCc1cnc2n1CCN(C(=O)N1CCCC1)C2"
  unit.spec: "%"
  Percent Effect: -6.82
- compound: "Nc1cc(CCC2CN(Cc3ccc(C(=O)O)cc3)CCO2)ccn1 (centres undefined)"
  unit.spec: "%"
  Percent Effect: -22
- compound: "Cc1nc(C2CCCN2CCCS(=O)(=O)N(C)C)no1 (centres undefined)"
  unit.spec: "%"
  Percent Effect: -9.28
- compound: "Cc1nc(CN2CCCC(NCCOc3ccccc3)C2)no1 (centres undefined)"
  unit.spec: "%"
  Percent Effect: -6.02
- compound: "CC(=O)N1CCCN(C(=O)c2oc(Br)cc2C)CC1"
  unit.spec: "%"
  Percent Effect: -7.7
- compound: "O=C(c1ccc(O)cc1)N1CCN(C(=O)c2ccc3c(c2)COC3)CC1"
  unit.spec: "%"
  Percent Effect: -6.29
- compound: "Cc1nc(CN2CCCC2c2ccsc2)nc2ccccc12 (centres undefined)"
  unit.spec: "%"
  Percent Effect: 4.99
- compound: "CCN1CCCC1CN(CCN(C)C)S(=O)(=O)c1ccc(C#N)cc1 (centres undefined)"
  unit.spec: "%"
  Percent Effect: -5.33
- compound: "CCNC(c1ccc(OC)cc1)c1cccnc1 (centres undefined)"
  unit.spec: "%"
  Percent Effect: -10.2
- compound: "Cc1nc(C)n(CC2CCCN2Cc2ccn(-c3ccccc3)n2)n1 (centres undefined)"
  unit.spec: "%"
  Percent Effect: -7.02
- compound: "CCC1c2ccsc2CCN1C(=O)NCc1ccccn1 (centres undefined)"
  unit.spec: "%"
  Percent Effect: -7.76
- compound: "CCCS(=O)(=O)N1CCC2(CN(c3cnn(C)c3)C(=O)CN2C)C1 (centres undefined)"
  unit.spec: "%"
  Percent Effect: 1.55
- compound: "CCCn1c(C)cc(C(=O)CN2C(=O)c3ccccc3CS2(=O)=O)c1C"
  unit.spec: "%"
  Percent Effect: 8.3
- compound: "COc1ncccc1CNc1cc(N2CCCC2CO)ncn1 (centres undefined)"
  unit.spec: "%"
  Percent Effect: -10.4
- compound: "CC(C)NC(=O)c1nnn(-c2cccc(C(F)(F)F)c2)c1N"
  unit.spec: "%"
  Percent Effect: -1.24
- compound: "O=C(NCc1nnc2n1CCCC2)N(Cc1ccccc1F)C1CC1"
  unit.spec: "%"
  Percent Effect: -4.24
- compound: "Cc1nccn1-c1cc(CNC(=O)c2ccccn2)ccn1"
  unit.spec: "%"
  Percent Effect: -4.24
- compound: "COc1ccc(OCc2sc(C3(O)CCCNCC3)nc2C)cc1 (centres undefined)"
  unit.spec: "%"
  Percent Effect: -17.3
- compound: "CN(c1ccncn1)C1CC2(CCN(C(=O)c3ccsc3)C2)C1 (centres undefined)"
  unit.spec: "%"
  Percent Effect: -21.9
- compound: "C=Cc1ccc(C(=O)N2CCCC(Nc3ccc(F)cc3)C2)cc1 (centres undefined)"
  unit.spec: "%"
  Percent Effect: -11.2
- compound: "O=C1NC2(CCN(C(=O)c3ccccc3)CC2)CC1c1cccnc1 (centres undefined)"
  unit.spec: "%"
  Percent Effect: -2.24
